Sourced from ChEMBL document CHEMBL1201862

Test system: Hs-578T
PROTOCOL TEXT: NCI tumour cell line growth inhibition, 48 h
Calls of active or inactive are those of the source. Cut-off read from the data, not from the text of the source: active = GI50 up to about 1.1 µM and inactive = higher.
Output constraint: value belongs to y (active), n (inactive)

Some solved entries appear below for comparison.
>>> assigned_class("C/C(=N\\O)c1ccc2ccc3ccccc3c2c1")
"n"
>>> assigned_class("CCOC(=O)N1CCc2cc(OC)c(OC)c3c2c1cc1cc(OC)c(OC)cc13")
"n"
>>> assigned_class("C/C=C1\\NC(=O)[C@H]2CSSCCC=C[C@H](CC(=O)N[C@H](C(C)C)C(=O)N2)OC(=O)[C@H](C(C)C)NC1=O")
"y"

Qu. I would be grateful if you could indicate the recorded call for CC(=N\N)/C(C)=N/N=C(C)/C(C)=N/N=C(C)/C(C)=N/N=C(C)/C(C)=N/N .
Ans. n

Qu. Tell me the recorded outcome of this test for CC[N+]1(C)CCC(O)(c2ccc(Cl)c(Cl)c2)C(C(=O)c2ccc(Cl)c(Cl)c2)C1 (stereo not given) .
Ans. n
